loss of inhibitory potency (change of Ki) against wild-type mouse fetuin-B overview
Molecular target: T1, human meprin β (human, UniProt Q16820 62-652)
T1 sequence (looked up): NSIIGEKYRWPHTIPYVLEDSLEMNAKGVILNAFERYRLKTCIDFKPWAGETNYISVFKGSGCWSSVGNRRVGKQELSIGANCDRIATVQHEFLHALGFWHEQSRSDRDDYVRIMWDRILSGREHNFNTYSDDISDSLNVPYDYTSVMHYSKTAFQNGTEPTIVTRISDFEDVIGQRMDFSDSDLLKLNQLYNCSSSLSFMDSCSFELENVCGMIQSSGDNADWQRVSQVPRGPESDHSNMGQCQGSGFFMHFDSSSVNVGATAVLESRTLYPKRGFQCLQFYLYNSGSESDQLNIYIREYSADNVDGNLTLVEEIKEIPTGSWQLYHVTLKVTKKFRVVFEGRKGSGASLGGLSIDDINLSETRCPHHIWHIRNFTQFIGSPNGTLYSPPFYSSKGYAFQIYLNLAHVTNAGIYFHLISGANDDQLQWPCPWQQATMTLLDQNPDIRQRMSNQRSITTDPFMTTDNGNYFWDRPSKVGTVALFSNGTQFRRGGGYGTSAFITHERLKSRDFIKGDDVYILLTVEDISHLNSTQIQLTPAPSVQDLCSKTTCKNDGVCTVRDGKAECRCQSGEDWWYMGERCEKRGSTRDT
Experiment: enzyme inhibition assay (fluorogenic substrate), Ki by Morrison's equation; fetuin-B variant titrated against enzyme; 37°C, 150 mM sodium chloride, 50 mM Tris-HCl pH 7.4, 0.01% Brij 35, triplicate; enzyme and substrate 1.0 nM and 195 µM for astacin, 0.5 nM and 26 µM for meprin β, 0.7 nM and 26 µM for ovastacin
Details: both partners purified
measurement-type: loss of inhibitory potency (change of Ki) against wild-type mouse fetuin-B

binder	result
mouse fetuin-B P155A (natural protein, UniProt Q9QXC1 19-388, looked up, also called mFB_(P155A); source: ExpiCHO-S cells, purified (Ni-NTA)) RSPPAPPLPQRPLSPLHPLGCNDSEVLAVAGFALQNINRDQKDGYMLSLNRVHDVREHYQEDMGSLFYLTLDVLETDCHVLSRKAQKDCKPRMFYESVYGQCKAMFHINKPRRVLYLPAYNCTLRPVSKRKTHTTCADCPSPIDLSNPSALEAATESLAKFNSKSPSKKYELVKVTKAMNQWVSGPAYYVEYLIKEAPCTKSQASCSLQHSDSEPVGICQGSTVQSSLRHVPLIQPVEKSVTVTCEFFESQAQVPGDENPAVTQGPQKLPQKNTAPTSSPSVTAPRGSIQHLPELDDEKPEESKGGSPEEAFPVQLDLTTNPQGDTLDVSFLYLEPGDKKLVVLPFPGKEQRSAECPGPEKENNPLVLPP	~1 orders of magnitude
chimeric mutant mFBABA (other, mouse, UniProt P29699 19-136, looked up, mouse fetuin-A CY1 domain, UniProt P29699, residues A19-P136; mouse fetuin-B CY2 domain with linker, UniProt Q9QXC1, residues V145-Q269; mouse fetuin-A CTR domain, UniProt P29699, residues P254-I345; also called chimera of mouse fetuin-B with CY1 and CTR from mouse fetuin-A; source: adenovirus-infected COS-7 cells, purified (Ni-NTA)) APQGTGLGFRELACDDPEAEQVALLAVDYLNNHLLQGFKQVLNQIDKVKVWSRRPFGVVYEMEVDTLETTCHALDPTPLANCSVRQLTEHAVEGDCDFHILKQDGQFRVMHTQCHSTPVSKRKTHTTCPDCPSPIDLSNPSALEAATESLAKFNSKSPSKKYELVKVTKAMNQWVSGPAYYVEYLIKEAPCTKSQASCSLQHSDSEPVGICQGSTVQSSLRHVPLIQPVEKSVTVTCEFFESQPQPANANAVGPVPTANAALPADPPASVVVGPVVVPRGLSDHRTYHDLRHAFSPVASVESASGETLHSPKVGQPGAAGPVSPMCPGRIRHFKI	> 4 orders of magnitude
mouse fetuin-B P155A+D156A (natural protein, UniProt Q9QXC1 19-388, looked up, also called mFB_(P155A,D156A); double mutant; source: ExpiCHO-S cells, purified (Ni-NTA)) RSPPAPPLPQRPLSPLHPLGCNDSEVLAVAGFALQNINRDQKDGYMLSLNRVHDVREHYQEDMGSLFYLTLDVLETDCHVLSRKAQKDCKPRMFYESVYGQCKAMFHINKPRRVLYLPAYNCTLRPVSKRKTHTTCAACPSPIDLSNPSALEAATESLAKFNSKSPSKKYELVKVTKAMNQWVSGPAYYVEYLIKEAPCTKSQASCSLQHSDSEPVGICQGSTVQSSLRHVPLIQPVEKSVTVTCEFFESQAQVPGDENPAVTQGPQKLPQKNTAPTSSPSVTAPRGSIQHLPELDDEKPEESKGGSPEEAFPVQLDLTTNPQGDTLDVSFLYLEPGDKKLVVLPFPGKEQRSAECPGPEKENNPLVLPP	4 orders of magnitude
mouse fetuin-B D156A (natural protein, UniProt Q9QXC1 19-388, looked up, also called mFB_(D156A); source: ExpiCHO-S cells, purified (Ni-NTA)) RSPPAPPLPQRPLSPLHPLGCNDSEVLAVAGFALQNINRDQKDGYMLSLNRVHDVREHYQEDMGSLFYLTLDVLETDCHVLSRKAQKDCKPRMFYESVYGQCKAMFHINKPRRVLYLPAYNCTLRPVSKRKTHTTCPACPSPIDLSNPSALEAATESLAKFNSKSPSKKYELVKVTKAMNQWVSGPAYYVEYLIKEAPCTKSQASCSLQHSDSEPVGICQGSTVQSSLRHVPLIQPVEKSVTVTCEFFESQAQVPGDENPAVTQGPQKLPQKNTAPTSSPSVTAPRGSIQHLPELDDEKPEESKGGSPEEAFPVQLDLTTNPQGDTLDVSFLYLEPGDKKLVVLPFPGKEQRSAECPGPEKENNPLVLPP	~2 orders of magnitude

Data origin: paper PMC6400186
